study.system: USP25 (Homo sapiens (Human))
Sequence (Q9UHP3 whole entry): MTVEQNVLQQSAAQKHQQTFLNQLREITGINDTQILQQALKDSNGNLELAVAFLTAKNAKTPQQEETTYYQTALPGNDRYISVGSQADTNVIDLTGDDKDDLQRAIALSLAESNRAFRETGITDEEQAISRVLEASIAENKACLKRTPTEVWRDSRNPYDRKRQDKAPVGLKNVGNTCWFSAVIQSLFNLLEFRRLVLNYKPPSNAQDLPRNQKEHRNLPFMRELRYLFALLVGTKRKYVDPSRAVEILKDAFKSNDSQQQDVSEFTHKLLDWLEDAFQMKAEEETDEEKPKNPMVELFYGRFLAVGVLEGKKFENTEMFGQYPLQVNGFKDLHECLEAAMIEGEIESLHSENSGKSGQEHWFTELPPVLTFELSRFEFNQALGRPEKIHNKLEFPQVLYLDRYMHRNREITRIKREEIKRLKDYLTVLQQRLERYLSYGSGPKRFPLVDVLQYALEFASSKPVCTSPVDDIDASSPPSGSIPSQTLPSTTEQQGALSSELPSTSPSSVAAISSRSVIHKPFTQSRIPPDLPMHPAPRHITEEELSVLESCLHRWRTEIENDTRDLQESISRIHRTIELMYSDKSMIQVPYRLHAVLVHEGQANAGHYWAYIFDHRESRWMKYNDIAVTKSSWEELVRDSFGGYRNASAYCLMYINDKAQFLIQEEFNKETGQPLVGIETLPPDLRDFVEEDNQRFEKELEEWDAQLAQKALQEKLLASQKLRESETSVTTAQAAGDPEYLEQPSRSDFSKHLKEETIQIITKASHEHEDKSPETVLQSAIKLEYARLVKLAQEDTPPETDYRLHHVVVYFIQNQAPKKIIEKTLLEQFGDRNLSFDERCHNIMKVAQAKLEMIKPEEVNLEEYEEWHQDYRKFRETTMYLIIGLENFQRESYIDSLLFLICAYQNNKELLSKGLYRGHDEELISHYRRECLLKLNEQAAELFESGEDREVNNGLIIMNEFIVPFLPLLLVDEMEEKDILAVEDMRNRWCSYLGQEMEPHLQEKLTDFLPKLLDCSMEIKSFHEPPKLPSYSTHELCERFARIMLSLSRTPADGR
quantity.name: IC50

Some compounds with known IC50 results, for comparison:
compound: Cc1ccc2c(N)c(C(=O)NCCc3ccc(N4CCNCC4)c(OC(F)F)c3)sc2n1
quantity.name: IC50
value.measured: 200 to 2000 nM

compound: Cc1ccc2c(N)c(C(=O)NCCc3ccc(C4CC5CCC(C4)N5)cc3)sc2n1 (single isomer, unassigned) [Example I-171]
quantity.name: IC50
value.measured: 200 to 2000 nM

What value of IC50 has been recorded for this entry: CC(C)Oc1ccc2c(N)c(C(=O)NCCc3ccc(N4CCNCC4)cc3)sc2n1
2000 to 10000 nM

What about Cc1ccc2c(N)c(C(=O)NCCc3ccc4c(c3)CNCC4)sc2n1 ?
200 to 2000 nM
